# Assayed System: T1, human Bfl-1 (c-myc-tagged) (human, UniProt Q16548 1-151)
# T1 chain: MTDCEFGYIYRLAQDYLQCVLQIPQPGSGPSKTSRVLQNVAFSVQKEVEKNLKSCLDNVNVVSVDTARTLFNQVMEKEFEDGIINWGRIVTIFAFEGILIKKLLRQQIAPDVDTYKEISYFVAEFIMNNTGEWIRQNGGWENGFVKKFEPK
# Method Notes: fluorescence anisotropy competition
Experimental Readout: pKi
Please keep in mind that pKi is minus log10 of the molar concentration; only the number is needed.

{"columns": ["Binder", "pKi"],
 "data": [
  ["Ac-QWVREIAAGLRRAADDVNAQVER-NH2 [FS2]", 7.68]
]}

The recorded pKi for entry Ac-QWAREIGAGLRRAADDVNAQVER-NH2 [PUMA/FS2 chimeric peptide: PUMA with smaller residues at positions G2, D3, A4 and E4] equals 6.22

The recorded pKi for entry Ac-QWAREIGAQLRRMADDLNAQYER-NH2 [Puma BH3 peptide (23 residues)] equals 8.32

The recorded pKi for entry Ac-QWVREIAAQLRRMADDLNAQYER-NH2 [PUMA/FS2 chimeric peptide: PUMA with larger residues at positions A2 and E2] equals 8.68

Taken from patent US20190185531A1.
